conditions: human gut metagenome, 24 h, 2 µM; note: call rule not given here
MEASURE NAME: Bacterial Biotransformation

COMPOUND	READING
O=C(O)COCCN1CCN(C(c2ccccc2)c2ccc(Cl)cc2)CC1 (configuration not stated)	Compound metabolized
CC(C)(Oc1ccc(CCNC(=O)c2ccc(Cl)cc2)cc1)C(=O)O [BEZAFIBRATE]	Compound metabolized
c1ccc([C@H]2CN3CCSC3=N2)cc1	Compound NOT metabolized
CNS(=O)(=O)Cc1ccc2[nH]cc(CCN(C)C)c2c1.O=C(O)CCC(=O)O [SUMATRIPTAN SUCCINATE]	Compound NOT metabolized
N#Cc1ccc(C(c2ccc(C#N)cc2)n2cncn2)cc1	Compound NOT metabolized
CCOC(=O)[C@H](CCc1ccccc1)N[C@H]1CCc2ccccc2N(CC(=O)O)C1=O	Compound metabolized
CC(=O)OCC(=O)[C@@]1(O)[C@@H](C)C[C@H]2[C@@H]3CCC4=CC(=O)C=C[C@]4(C)[C@@]3(F)[C@@H](O)C[C@@]21C [BETAMETHASONE ACETATE]	Compound metabolized
COc1ccc2[nH]c([S+]([O-])Cc3ncc(C)c(OC)c3C)nc2n1 (configuration not stated)	Compound metabolized
CCCC(=O)Nc1ccc(OCC(O)CNC(C)C)c(C(C)=O)c1 (configuration not stated)	Compound metabolized
CC(C)OC(=O)C(C)(C)Oc1ccc(C(=O)c2ccc(Cl)cc2)cc1 [FENOFIBRATE]	Compound NOT metabolized
CN(C)CCc1c[nH]c2ccc(Cn3cncn3)cc12.O=C(O)c1ccccc1 [RIZATRIPTAN BENZOATE]	Compound NOT metabolized
CCN(CC)CCOC(=O)C(Cc1cccc2ccccc12)CC1CCCO1.O=C(O)C(=O)O (configuration not stated) [NAFRONYL OXALATE]	Compound metabolized
CN1C(=O)CC(C)(c2ccccc2)C1=O (configuration not stated) [METHSUXIMIDE]	Compound NOT metabolized
CN1CCc2cccc3c2[C@H]1Cc1ccc(O)c(O)c1-3	Compound NOT metabolized
CS(=O)(=O)O.O.O.O.O=C1Cc2cc(CCN3CCN(c4nsc5ccccc45)CC3)c(Cl)cc2N1 [ZIPRASIDONE MESYLATE]	Compound metabolized
COC(=O)C1=C(C)NC(C)=C(C(=O)OC(C)C)C1c1cccc2nonc12 (configuration not stated)	Compound metabolized
Cc1cn([C@H]2C[C@H](N=[N+]=[N-])[C@@H](CO)O2)c(=O)[nH]c1=O	Compound NOT metabolized
